Hello, the source for this data is patent US20050019424A1, in case you need it.

For CYP2D6 (Homo sapiens, UniProt P10635), measured IC50 is reported for the entries below.
metric_name: IC50 (µM)

NC(=O)c1cc(Cc2cnc(Nc3ccc(Cl)cc3)c3ccccc23)ccn1 | 15

[A] Clc1ccc(Nc2ncc(Cc3ccncc3)c3ccccc23)cc1
[B] NC(=O)c1cc(COC2=NN=C(Nc3ccc(Cl)cc3)C3C=CSC23)ccn1 (centres unmarked)
[C] Clc1ccc(Nc2nnc(Cc3ccncc3)c3ccccc23)cc1 [WO 98/35958 (Example 4), reference compound]
Ranking field: IC50; order: falling. Answer format: the labels, in the requested order.
B, C, A

###

The following compounds each carry a recorded pIC50 for CYP2C9 (Homo sapiens, UniProt P11712).
pIC50: −log10 of the molar value.
metric_name: pIC50

NC(=O)c1cc(Cc2cnc(Nc3ccc(Cl)cc3)c3ccccc23)ccn1 | 5.72

[a] Clc1ccc(Nc2nnc(OCc3ccncc3)c3ccccc23)cc1 [WO 98/35958 (Example 50), reference compound]
[b] CNC(=O)c1cc(Cc2cnc(Nc3ccc(Cl)cc3)c3ccccc23)ccn1
[c] Clc1ccc(Nc2ncc(Cc3ccncc3)c3ccccc23)cc1
[d] Clc1ccc(Nc2nnc(Nc3ccc4ncsc4c3)c3sccc23)cc1
[e] Clc1ccc(Nc2nnc(Cc3ccncc3)c3ccccc23)cc1 [WO 98/35958 (Example 4), reference compound]
Put the compounds in ascending order of pIC50. Return the labels ranked in the requested order, please.
d, b, e, a, c
(d: 5.41, b: 5.80, e: 6.19, a: 6.54, c: 6.96)

###

target: CYP3A4 (Homo sapiens, UniProt P08684)
Sequence (P08684 whole entry): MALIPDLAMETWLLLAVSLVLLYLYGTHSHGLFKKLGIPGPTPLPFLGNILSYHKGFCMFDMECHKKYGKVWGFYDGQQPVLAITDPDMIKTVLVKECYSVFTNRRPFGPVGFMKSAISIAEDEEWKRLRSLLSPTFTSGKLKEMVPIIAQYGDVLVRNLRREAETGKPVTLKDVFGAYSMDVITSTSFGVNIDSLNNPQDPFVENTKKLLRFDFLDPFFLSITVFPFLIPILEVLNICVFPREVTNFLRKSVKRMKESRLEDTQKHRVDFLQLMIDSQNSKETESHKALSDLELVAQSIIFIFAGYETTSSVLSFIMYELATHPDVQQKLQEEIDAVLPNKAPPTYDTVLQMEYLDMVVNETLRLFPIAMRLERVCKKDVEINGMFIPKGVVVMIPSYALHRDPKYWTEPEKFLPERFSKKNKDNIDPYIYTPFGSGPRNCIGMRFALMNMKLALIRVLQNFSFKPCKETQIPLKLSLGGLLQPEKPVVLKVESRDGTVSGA
metric_name: IC50 (nM)

[A] NC(=O)c1cc(COC2=NN=C(Nc3ccc(Cl)cc3)C3C=CSC23)ccn1 (stereo not shown)
[B] NC(=O)c1cc(COc2nnc(Nc3ccc(Cl)cc3)c3ccccc23)ccn1
Could you point out whether the larger IC50 belongs to A or to B ? Selection: enter the item's label.
A

[1] CNC(=O)c1cc(Cc2cnc(Nc3ccc(Cl)cc3)c3ccccc23)ccn1
[2] Clc1ccc(Nc2nnc(OCc3ccncc3)c3ccccc23)cc1 [WO 98/35958 (Example 50), reference compound]
[3] Clc1ccc(Nc2ncc(Cc3ccncc3)c3ccccc23)cc1
Ascending by IC50, please: list the compounds accordingly. Field: ranking. Enter the labels in the order requested.
2, 3, 1

###

pIC50: −log10 of the molar value.
# collection of pIC50 values tested on CYP2D6 (Homo sapiens)
metric_name: pIC50

[1] Clc1ccc(Nc2nnc(OCc3ccncc3)c3ccccc23)cc1 [WO 98/35958 (Example 50), reference compound]
[2] CNC(=O)c1cc(Cc2cnc(Nc3ccc(Cl)cc3)c3ccccc23)ccn1
Lab notebook, comparison: 1 versus 2 , higher pIC50 goes to which? Pick one and reply with its label.
1

###

Molecular target: UniProtKB P05177
Sequence (P05177 1-516): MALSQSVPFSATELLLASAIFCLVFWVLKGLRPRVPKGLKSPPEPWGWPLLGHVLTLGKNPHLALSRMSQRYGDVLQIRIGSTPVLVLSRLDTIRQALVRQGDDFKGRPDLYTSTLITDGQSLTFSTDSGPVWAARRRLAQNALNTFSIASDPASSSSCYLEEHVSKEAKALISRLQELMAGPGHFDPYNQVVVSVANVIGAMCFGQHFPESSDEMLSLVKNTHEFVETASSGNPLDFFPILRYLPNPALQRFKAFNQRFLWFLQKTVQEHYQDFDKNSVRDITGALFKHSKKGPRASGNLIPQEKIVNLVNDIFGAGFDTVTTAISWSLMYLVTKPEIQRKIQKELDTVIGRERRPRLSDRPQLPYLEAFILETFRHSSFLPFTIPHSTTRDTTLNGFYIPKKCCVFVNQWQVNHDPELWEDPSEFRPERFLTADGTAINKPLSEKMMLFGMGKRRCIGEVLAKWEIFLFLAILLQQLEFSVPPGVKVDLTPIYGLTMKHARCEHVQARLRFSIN
pIC50: −log10 of the molar value.
metric_name: pIC50

[A] Clc1ccc(Nc2ncc(Cc3ccncc3)c3ccccc23)cc1
[B] CNC(=O)c1cc(COc2nnc(Nc3ccc(OC)cc3)c3ccoc23)ccn1
[C] Clc1ccc(NC2=NN=C(OCc3ccncc3)C3SC=CC23)cc1 (centres unmarked)
Ascending by pIC50, please: list the compounds accordingly. Answer with the labels in sequence, matching the requested order.
B, C, A
(B: 5.38, C: 6.30, A: 6.77)

###

pIC50: −log10 of the molar value.
Reported values: pIC50 for CYP1A2 (Homo sapiens, UniProt P05177), one per item.
metric_name: pIC50

CNC(=O)c1cc(COc2nnc(Nc3ccc4c(c3)CCC4)c3ccoc23)ccn1 | 5.35

[a] NC(=O)c1cc(COC2=NN=C(Nc3ccc(Cl)cc3)C3C=CSC23)ccn1 (stereo not drawn)
[b] NC(=O)c1cc(COc2nnc(Nc3ccc(Cl)cc3)c3ccccc23)ccn1
Please indicate which has the smaller reported pIC50: a , or b . # answer = label of selected item
a
(a: 5.48, b: 5.82)

###

molecular target: CYP2C19 (Homo sapiens, UniProt P33261)
Sequence (P33261 whole entry): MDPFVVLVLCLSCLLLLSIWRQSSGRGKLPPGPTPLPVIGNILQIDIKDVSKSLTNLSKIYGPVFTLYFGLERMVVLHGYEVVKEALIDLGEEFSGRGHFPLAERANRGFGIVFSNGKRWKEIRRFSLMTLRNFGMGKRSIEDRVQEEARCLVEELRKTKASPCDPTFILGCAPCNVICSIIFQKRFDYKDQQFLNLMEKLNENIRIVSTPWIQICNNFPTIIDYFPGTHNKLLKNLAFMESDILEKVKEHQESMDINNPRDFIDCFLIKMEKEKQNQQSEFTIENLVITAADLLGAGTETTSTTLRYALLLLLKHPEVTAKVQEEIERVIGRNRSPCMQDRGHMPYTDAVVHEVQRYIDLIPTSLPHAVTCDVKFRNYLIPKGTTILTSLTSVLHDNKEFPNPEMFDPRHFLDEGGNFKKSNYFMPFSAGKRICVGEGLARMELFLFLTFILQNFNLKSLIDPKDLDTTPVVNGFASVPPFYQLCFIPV
metric_name: IC50 (µM)

Clc1ccc(NC2=NN=C(OCc3ccncc3)C3SC=CC23)cc1 (stereo not drawn) | 7.5
Clc1ccc(Nc2ncc(Cc3ccncc3)c3ccccc23)cc1 | 0.07
Clc1ccc(Nc2nnc(OCc3ccncc3)c3ccccc23)cc1 [WO 98/35958 (Example 50), reference compound] | 0.79

[A] Clc1ccc(Nc2nnc(Cc3ccncc3)c3ccccc23)cc1 [WO 98/35958 (Example 4), reference compound]
[B] CNC(=O)c1cc(Cc2nnc(Nc3ccc(Cl)cc3)c3ccccc23)ccn1
# compare IC50 for A vs B ; return the one with the smaller value Please indicate the selected item by its label.
A

###

Let's go through some recorded IC50 values for CYP2D6 (Homo sapiens, UniProt P10635) together.

Lab note: need IC50 for "CNC(=O)c1cc(COc2nnc(Nc3ccc(OC)cc3)c3ccoc23)ccn1" on CYP2D6 (Homo sapiens, UniProt P10635), anyone have it?
> 20 µM

Please provide the recorded IC50 for "NC(=O)c1cc(Cc2nnc(Nc3ccc(Cl)cc3)c3ccccc23)ccn1" , tested on CYP2D6 (Homo sapiens, UniProt P10635).
Sequence (P10635 whole entry): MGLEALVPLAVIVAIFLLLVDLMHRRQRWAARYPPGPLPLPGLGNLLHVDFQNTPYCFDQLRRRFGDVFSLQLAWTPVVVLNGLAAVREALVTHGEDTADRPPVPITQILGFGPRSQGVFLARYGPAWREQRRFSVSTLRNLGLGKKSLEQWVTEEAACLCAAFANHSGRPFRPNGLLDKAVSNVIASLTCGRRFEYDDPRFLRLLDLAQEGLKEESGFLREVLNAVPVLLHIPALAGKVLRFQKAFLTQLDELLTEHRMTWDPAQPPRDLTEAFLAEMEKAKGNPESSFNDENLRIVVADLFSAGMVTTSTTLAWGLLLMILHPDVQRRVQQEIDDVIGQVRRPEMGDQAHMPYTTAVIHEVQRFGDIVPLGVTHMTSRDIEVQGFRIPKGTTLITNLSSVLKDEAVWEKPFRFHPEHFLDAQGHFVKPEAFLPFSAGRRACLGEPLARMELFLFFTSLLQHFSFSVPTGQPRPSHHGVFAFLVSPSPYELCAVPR
> 20 µM

Form entry - test system: CYP2D6 (Homo sapiens, UniProt P10635); read-out: IC50; compound: "CNC(=O)c1cc(COc2nnc(Nc3ccc4c(c3)CCC4)c3ccoc23)ccn1"
> 20 µM

Can you look up IC50 on CYP2D6 (Homo sapiens, UniProt P10635) for "CNC(=O)c1cc(Cc2nnc(Nc3ccc(Cl)cc3)c3ccccc23)ccn1" ?
> 20 µM

###

molecular target: CYP2C9 (Homo sapiens); construct: purchased GENTEST Corporation P258; assay: Fluorometric cytochrome P450 inhibition assay, CYP2C9; assay type: in vitro ADME; conditions: cDNA-expressed human CYP2C9 Supersomes, substrate DBF, 5 point dose response; read-out: CYP2C9 Inh. IC50
Sequence (P11712 whole entry): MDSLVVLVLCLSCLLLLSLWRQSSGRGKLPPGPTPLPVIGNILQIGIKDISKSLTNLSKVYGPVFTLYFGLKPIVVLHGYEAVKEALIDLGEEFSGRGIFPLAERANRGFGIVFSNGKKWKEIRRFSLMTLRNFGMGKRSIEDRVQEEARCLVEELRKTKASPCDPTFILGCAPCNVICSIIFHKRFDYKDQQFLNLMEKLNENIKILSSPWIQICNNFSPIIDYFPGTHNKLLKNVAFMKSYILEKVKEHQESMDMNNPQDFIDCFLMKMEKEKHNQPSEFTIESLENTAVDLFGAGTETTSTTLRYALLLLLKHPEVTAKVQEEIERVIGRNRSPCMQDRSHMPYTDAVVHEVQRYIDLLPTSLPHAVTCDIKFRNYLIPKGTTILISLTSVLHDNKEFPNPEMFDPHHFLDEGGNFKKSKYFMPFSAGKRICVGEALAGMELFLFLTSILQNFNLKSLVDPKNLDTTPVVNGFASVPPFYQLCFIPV
Attribute: IC50

# count of solved cases: 2
CNC(=O)c1cc(COc2nnc(Nc3cccc(C)c3)c3ccsc23)ccn1 | > 20 µM
CN(C)C(=O)c1cc(COC2=NN=C(Nc3ccc(Cl)cc3)C3C=COC23)ccn1 (stereo not drawn) | > 20 µM

Consider now this further compound.
Request the reported IC50 associated with "CNC(=O)c1cc(COc2nnc(Nc3ccc4c(c3)OCC4)c3ccoc23)ccn1"
> 20 µM

###

target: UniProtKB P08684
pIC50: −log10 of the molar value.
metric_name: pIC50

Clc1ccc(NC2=NN=C(OCc3ccncc3)C3OC=CC23)cc1 (centres unmarked) | 6.41

[I] CNC(=O)c1cc(COc2nnc(Nc3ccc4c(c3)CCC4)c3ccoc23)ccn1
[II] CN(C)C(=O)c1cc(COC2=NN=C(Nc3ccc(Cl)cc3)C3C=COC23)ccn1 (centres unmarked)
From the recorded data, which exceeds the other in pIC50: I or II ? Answer format: the label of the selected item.
I

###

pIC50: −log10 of the molar value.
Hi! I'm sharing some pIC50 results obtained with CYP2D6 (Homo sapiens, UniProt P10635).

# example entries with known answers
Clc1ccc(Nc2nnc(Nc3ccc4ncsc4c3)c3sccc23)cc1 | < 4.70
O=C(NC1CC1)c1cc(COC2=NN=C(Nc3ccc(Cl)cc3)C3C=COC23)ccn1 (stereo not drawn) | < 4.70

Then this molecule:
Query the reported pIC50 for CYP2D6 (Homo sapiens, UniProt P10635); item: "CNC(=O)c1cc(COc2nnc(Nc3ccc(Cl)cc3)c3ccccc23)ccn1"
< 4.70

###

Biological target: UniProt P05177
Sequence (P05177 1-516): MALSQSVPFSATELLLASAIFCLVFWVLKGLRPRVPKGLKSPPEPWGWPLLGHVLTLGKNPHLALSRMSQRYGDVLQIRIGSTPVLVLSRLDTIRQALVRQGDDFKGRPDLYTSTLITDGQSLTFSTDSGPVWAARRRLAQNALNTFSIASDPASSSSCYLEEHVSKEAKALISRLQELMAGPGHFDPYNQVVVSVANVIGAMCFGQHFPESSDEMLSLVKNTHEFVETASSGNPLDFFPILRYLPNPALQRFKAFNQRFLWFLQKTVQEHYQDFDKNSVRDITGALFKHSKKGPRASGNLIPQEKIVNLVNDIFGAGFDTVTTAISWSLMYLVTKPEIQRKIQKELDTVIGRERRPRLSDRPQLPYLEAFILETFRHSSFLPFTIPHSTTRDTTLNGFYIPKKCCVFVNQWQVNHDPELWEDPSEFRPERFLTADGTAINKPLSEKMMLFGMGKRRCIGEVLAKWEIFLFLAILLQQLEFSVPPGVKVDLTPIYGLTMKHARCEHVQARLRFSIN
metric_name: IC50 (µM)

CNC(=O)c1cc(COc2nnc(Nc3ccc4c(c3)OCC4)c3ccoc23)ccn1 | 11

[a] Clc1ccc(Nc2nnc(Cc3ccncc3)c3ccccc23)cc1 [WO 98/35958 (Example 4), reference compound]
[b] CN(C)C(=O)c1cc(COC2=NN=C(Nc3ccc(Cl)cc3)C3C=COC23)ccn1 (stereo not drawn)
Compare reported IC50 values for a and b . Which is lower? Let me know the label of the one you choose.
a
(a: 1.49 µM, b: 3.5 µM)

[P] Clc1ccc(Nc2nnc(OCc3ccncc3)c3ccccc23)cc1 [WO 98/35958 (Example 50), reference compound]
[Q] CNC(=O)c1cc(Cc2cnc(Nc3ccc(Cl)cc3)c3ccccc23)ccn1
[R] Clc1ccc(NC2=NN=C(OCc3ccncc3)C3OC=CC23)cc1 (stereo not drawn)
[S] NC(=O)c1cc(COC2=NN=C(Nc3ccc(Cl)cc3)C3C=COC23)ccn1 (stereo not drawn)
Could you please sort these 4 entries by IC50 from high to low? Answer by naming the labels in the order asked.
S, Q, R, P
(S: 17 µM, Q: 3.8 µM, R: 0.66 µM, P: 0.24 µM)
